Test: Inhibition of NDM1 (unknown origin)
quantity.name: log10 of IC50 (log10 of the value in µM)

>>> measured("O=C(O)[C@@H]1CCCN1C(=O)[C@H](CS)C(F)(F)F")
1.78
>>> measured("O=C(CC(S)C(F)(F)F)Nc1ccccc1 (configuration not stated)")
1.34
>>> measured("O=C(O)[C@H]1CCCN1C(=O)[C@@H](CS)C(F)(F)F")
-0.52
>>> measured("C[C@@H](CS)C(=O)N1CCC[C@@H]1C(=O)O")
1.81
>>> measured("O=C(O)C1CCN(C(=O)C(CS)C(F)(F)F)CC1 (configuration not stated)")
0.34
>>> measured("O=C(NCc1ccccc1)[C@H](CS)C(F)(F)F")
1.00
>>> measured("O=C(O)[C@@H]1CCCN1C(=O)C(CS)C(F)(F)F (some centres not stated)")
1.57
>>> measured("O=C(O)[C@@H]1CCCN1C(=O)[C@@H](CS)C(F)(F)F")
0.79
>>> measured("O=C(CC(S)C(F)(F)F)Nc1ccc(C(=O)O)cc1 (configuration not stated)")
0.75
>>> measured("O=C(Nc1ccccc1)C(CS)C(F)(F)F (configuration not stated)")
0.53
>>> measured("O=C(O)[C@H]1CCCCN1C(=O)C(CS)C(F)(F)F (some centres not stated)")
0.51
>>> measured("O=C(O)[C@H]1CCCCN1C(=O)CC(S)C(F)(F)F (some centres not stated)")
2.16
>>> measured("O=C(O)[C@H]1CCCN1C(=O)[C@H](CS)C(F)(F)F")
0.65
>>> measured("O=C(NCc1ccccc1)C(CS)C(F)(F)F (racemic)")
1.30
>>> measured("O=C(NCc1ccccc1)[C@@H](CS)C(F)(F)F")
1.88
>>> measured("O=C(O)c1ccc(CNC(=O)C(CS)C(F)(F)F)cc1 (configuration not stated)")
1.81

* * *

Assay: Inhibition of NDM1 (unknown origin)
quantity.name: IC50

>>> measured("O=C(CC(S)C(F)(F)F)NCc1ccc(C(=O)O)cc1 (stereo unspecified)")
"> 300 µM"
>>> measured("O=C(O)C1CCN(C(=O)CC(S)C(F)(F)F)CC1 (stereo unspecified)")
"> 300 µM"
>>> measured("O=C(CC(S)C(F)(F)F)NCc1ccccc1 (stereo unspecified)")
"> 300 µM"
>>> measured("C[C@@H](CS)C(=O)N1CCC[C@H]1C(=O)O")
"> 500 µM"
>>> measured("O=C(O)[C@@H]1CCCN1C(=O)CC(S)C(F)(F)F (stereo partly specified)")
"> 300 µM"
>>> measured("O=C(O)[C@H]1CCCN1C(=O)CC(S)C(F)(F)F (stereo partly specified)")
"> 300 µM"
